System: LMR20 cells
experiment: Proliferation of MDV3100-resistant LMR20 cells (MTT; with R1881 or DHT)
Assay type: cell-based, human
measurement-conditions: CSS + R1881, ASO 1.0 μM, 5 days
The following sequences are listed with their measured Percent inhibition of LMR20 cell proliferation values.
endpoint: Percent inhibition of LMR20 cell proliferation (%)

monomer-sequence | target-or-system | number
ACCAAGTTTCTTCAGC (LNA gapmer, phosphorothioate backbone, further chemistry not given here) [ISIS 554221, 3-10-3 LNA gapmer, phosphorothioate backbone, targeted to exon 4 of AR; benchmark, reference compound] | LMR20 cells | 19
TTGATTTAATGGTTGC [ISIS 560131] (MOE and (S)-cEt gapmer chemistry, further chemistry not given here) [targets intron 1] | LMR20 cells | 55
TGATTTAATGGTTGCA [ISIS 569236] (cEt/MOE gapmer chemistry, further chemistry not given here) [targets intron 1] | LMR20 cells | 34
GTTGATTTAATGGTTG (all phosphorothioate, sugars by position not given here; further chemistry not fully specified) [ISIS 549458] | LMR20 cells | 59

----------
Test system: AR mRNA
experiment: AR mRNA levels in LMR20 cells (with/without DHT or R1881)
Format: cell-based, human
measurement-conditions: LMR20 cells, DHT 10 nM 72 hrs, ASO 0.20 μM
Oligonucleotides are written 5' to 3', each unit as a sugar letter and its base; * is a phosphorothioate linkage, no mark a phosphodiester; rarer units and linkages stand in square brackets, end groups in braces. Plain capitals give the bases only. e = 2'-O-(2-methoxyethyl) (MOE); l = locked nucleic acid (LNA); k = constrained ethyl (cEt); [5mC] = 5-methylcytosine; d = 2'-deoxy (DNA)
The following substances are listed with their measured AR mRNA levels (% baseline value) after treatment with DHT values.
endpoint: AR mRNA levels (% baseline value) after treatment with DHT

substance | reading-unit | number
549458 (kG*kT*kT*dG*dA*dT*dT*dT*dA*dA*dT*dG*dG*kT*kT*kG) [compound 549458] | % baseline value | 66
560131 (antisense kT*kT*kG*dA*dT*dT*dT*dA*dA*dT*dG*dG*kT*kT*kG*e[5mC]) [compound 560131] | % baseline value | 55
554221 (ACCAAGTTTCTTCAGC; sugars from the 5' end l3 d10 l3, all phosphorothioate, methylation of C not given here) [compound 554221] | % baseline value | 135
569236 (antisense eT*kG*kA*kT*dT*dT*dA*dA*dT*dG*dG*kT*kT*kG*e[5mC]*eA) [compound 569236] | % baseline value | 77

----------
System: AR mRNA
experiment: Antisense inhibition of human AR in HuVEC cells, single concentration (electroporation, qRT-PCR RTS3559)
Type: cell-based
measurement-conditions: 500 nM ASO, ~24 h, Table 5
Oligonucleotides are written 5' to 3', each unit as a sugar letter and its base; * is a phosphorothioate linkage, no mark a phosphodiester; rarer units and linkages stand in square brackets, end groups in braces. Plain capitals give the bases only. k = constrained ethyl (cEt); [5mC] = 5-methylcytosine; d = 2'-deoxy (DNA)
The following substances are listed with their measured % inhibition values.
endpoint: % inhibition (%)

substance | target-or-system | number
549457 (kT*kT*kG*dA*dT*dT*dT*dA*dA*dT*dG*dG*dT*kT*kG*k[5mC]) [compound 549457] | AR mRNA | 98
549459 (kA*kT*kG*dG*dT*dT*dG*dA*dT*dT*dT*dA*dA*kT*kG*kG) [compound 549459] | AR mRNA | 92
560137 (antisense TTGATTTAATGGTTGC; all C 5-methyl, all phosphorothioate, sugars by position not given here; further chemistry not fully specified) [compound 560137] | AR mRNA | 95

----------
The following sequences are listed with their measured Percent inhibition of cell proliferation values.
Test system: C4-2B cells
experiment: C4-2B cell proliferation by free uptake (MTT)
Type: cell-based, human
measurement-conditions: dose 1.00 μM, day 6
Oligonucleotides are written 5' to 3', each unit as a sugar letter and its base; * is a phosphorothioate linkage, no mark a phosphodiester; rarer units and linkages stand in square brackets, end groups in braces. Plain capitals give the bases only. k = constrained ethyl (cEt); [5mC] = 5-methylcytosine; d = 2'-deoxy (DNA)

monomer-sequence | Percent inhibition of cell proliferation [%]
AAGTTGTAGTAGTCGC (kA*kA*kG*dT*dT*dG*dT*dA*dG*dT*dA*dG*dT*k[5mC]*kG*k[5mC]) [ISIS 549372, targets exon 1] | 44
ACCAAGTTTCTTCAGC (LNA gapmer, phosphorothioate backbone, further chemistry not given here) [ISIS 554221, 3-10-3 LNA gapmer, phosphorothioate backbone, targeted to exon 4 of AR; benchmark, reference compound] | 21
CTAAACTTCCCGTGGC (k[5mC]*kT*kA*dA*dA*d[5mC]*dT*dT*d[5mC]*d[5mC]*d[5mC]*dG*dT*kG*kG*k[5mC]) [ISIS 549434, targets 3'-end of exon 8] | 35
GTTGATTTAATGGTTG (all phosphorothioate, sugars by position not given here; further chemistry not fully specified) [ISIS 549458] | 45

----------
System: AR mRNA
experiment: Dose-dependent antisense inhibition of human AR in HuVEC cells (electroporation, qRT-PCR RTS3559, IC50)
Type: cell-based
measurement-conditions: HuVEC, ~16 h; Table 3
Oligonucleotides are written 5' to 3', each unit as a sugar letter and its base; * is a phosphorothioate linkage, no mark a phosphodiester; rarer units and linkages stand in square brackets, end groups in braces. Plain capitals give the bases only. k = constrained ethyl (cEt); [5mC] = 5-methylcytosine; d = 2'-deoxy (DNA)
The following substances are listed with their measured IC50 values.

substance | IC50, nM
549388 (kT*k[5mC]*k[5mC]*d[5mC]*dT*dT*d[5mC]*dA*dG*d[5mC]*dG*dG*d[5mC]*kT*k[5mC]*kT; antisense) [compound 549388] | 428
549379 (kG*k[5mC]*kT*d[5mC]*d[5mC]*d[5mC]*dG*d[5mC]*d[5mC]*dT*d[5mC]*dG*d[5mC]*k[5mC]*kG*k[5mC]; antisense) [compound 549379] | 237
549361 (kG*kA*k[5mC]*dA*d[5mC]*d[5mC]*dG*dA*d[5mC]*dA*d[5mC]*dT*dG*k[5mC]*k[5mC]*kT; antisense) [compound 549361] | 525

----------
The following substances are listed with their measured Percent inhibition of C4-2B MR cell proliferation values.
Tested on: C4-2B MR cells
experiment: Proliferation of MDV3100-resistant C4-2B cells (CellTiter 96)
Assay type: cell-based, human
measurement-conditions: 5.00 μM, 6 days
Oligonucleotides are written 5' to 3', each unit as a sugar letter and its base; * is a phosphorothioate linkage, no mark a phosphodiester; rarer units and linkages stand in square brackets, end groups in braces. Plain capitals give the bases only. e = 2'-O-(2-methoxyethyl) (MOE); l = locked nucleic acid (LNA); k = constrained ethyl (cEt); [5mC] = 5-methylcytosine; d = 2'-deoxy (DNA)
endpoint: Percent inhibition of C4-2B MR cell proliferation (%)

substance | target-or-system | reading-unit | number
554221 (ACCAAGTTTCTTCAGC; sugars from the 5' end l3 d10 l3, all phosphorothioate, methylation of C not given here) [compound 554221] | C4-2B MR cells | % | 24
549434 (k[5mC]*kT*kA*dA*dA*d[5mC]*dT*dT*d[5mC]*d[5mC]*d[5mC]*dG*dT*kG*kG*k[5mC]) [compound 549434] | C4-2B MR cells | % | 22
549372 (kA*kA*kG*dT*dT*dG*dT*dA*dG*dT*dA*dG*dT*k[5mC]*kG*k[5mC]) [compound 549372] | C4-2B MR cells | % | 43
549458 (kG*kT*kT*dG*dA*dT*dT*dT*dA*dA*dT*dG*dG*kT*kT*kG) [compound 549458] | C4-2B MR cells | % | 56
347526 (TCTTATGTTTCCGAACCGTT; sugars from the 5' end e5 d10 e5, backbone and methylation of C not given here) [compound 347526] | C4-2B MR cells | % | 16

----------
measurement-conditions: cynomolgus monkey, in vivo, sc, 40 mg/kg

substance | RBC / µL
TGATTTAATGGTTGCA [ISIS 569236] (cEt/MOE gapmer chemistry, further chemistry not given here) | 5.7e+06
GATTTAATGGTTGCAA (cEt gapmer chemistry, further chemistry not given here) [ISIS 586124] | 5.8e+06
TTGATTTAATGGTTGC [ISIS 579671] (cEt/MOE gapmer chemistry, further chemistry not given here) | 5.4e+06
TTGATTTAATGGTTGC [ISIS 560131] (MOE and (S)-cEt gapmer chemistry, further chemistry not given here) | 5.8e+06
ISIS 584269: antisense compound targeted to human AR (CCTTATGGATGCTGCT; 3-10-3 (S)-cEt gapmer, further chemistry not given here) | 5.2e+06
ISIS 584149: antisense compound targeted to human AR (GTCAATATCAAAGCAC; 3-10-3 (S)-cEt gapmer, further chemistry not given here) | 5.7e+06
TGATTTAATGGTTGCA [ISIS 569213] (cEt/MOE gapmer chemistry, further chemistry not given here) | 5.6e+06
TGATTTAATGGTTGCA [ISIS 569221] (cEt/MOE gapmer chemistry, further chemistry not given here) | 5.6e+06
ISIS 584163: antisense compound targeted to human AR (GAACATTATTAGGCTA; 3-10-3 (S)-cEt gapmer, further chemistry not given here) | 5.5e+06
TGATTTAATGGTTGCA [ISIS 569216] (cEt/MOE gapmer chemistry, further chemistry not given here) | 5.6e+06
ISIS 583918: antisense compound targeted to human AR (AGTCGCGACTCTGGTA; 3-10-3 (S)-cEt gapmer, further chemistry not given here) | 5.8e+06
ISIS 584468: antisense compound targeted to human AR (CATTGTACTATGCCAG; 3-10-3 (S)-cEt gapmer, further chemistry not given here) | 5.9e+06
